Target: T1, HLA-B*08:01 (human)
T1 construct: MHC monomer first loaded with a UV-sensitive peptide that is cleaved by UV light and exchanged for the test peptide
Assay: UV peptide exchange ELISA
measurement-kind: peptide exchange yield

Consider the following illustrative entries.
EVMAQFKEI [EVMAQFKEI (SEQ ID NO: 163)]	20 to 50%
RILKRFLAC [RILKRFLAC (SEQ ID NO: 21)]	50 to 75%
YSQLSISL [YSQLSISL (SEQ ID NO: 121)]	20 to 50%

Can you look up the measured peptide exchange yield of EYLETKRLAF [EYLETKRLAF (SEQ ID NO: 135)] for me?
10 to 20%

If you can, please state the reported peptide exchange yield value of HSRVKLAQL [HSRVKLAQL (SEQ ID NO: 47)] .
20 to 50%

Requested read-out: peptide exchange yield. Entry: QIMPKAGL [QIMPKAGL (SEQ ID NO: 2)]
50 to 75%

Name the reported peptide exchange yield value associated with the binder QATPRVRIL [QATPRVRIL (SEQ ID NO: 133)]
20 to 50%

// query peptide exchange yield value for entry SPANVRGQSL [SPANVRGQSL (SEQ ID NO: 170)]
20 to 50%

I would be grateful if you could share the reported peptide exchange yield for MIYRKALRL [MIYRKALRL (SEQ ID NO: 145)] .
20 to 50%

Look up peptide exchange yield: DLRNKIIAA [DLRNKIIAA (SEQ ID NO: 46)]
50 to 75%
